Quick reference: viability, T/C of the listed items.
Tested on: 556581-035-R-J1 tumor spheroid viability, % test/control
Experiment: Anticancer human tumor 556581-035-R-J1 patient-derived ovarian carcinoma cell line growth inhibition
Settings: second compound 0.0003 µM; first compound 0.316 µM; active compounds read low; spheroids with HUVEC and MSC
# number only, unit % dropped from output

Some solved entries appear below for comparison.
- MOLECULE: "CC1COCCN1c1cc(-c2ccnn2C)c2ccnc(-c3ccn[nH]3)c2n1 (stereo unspecified) + COc1cc2c(cc1O)CCNC21CSC2c3c(OC(C)=O)c(C)c4c(c3C(COC1=O)N1C(O)C3Cc5cc(C)c(OC)c(O)c5C(C21)N3C)OCO4"
  viability, T/C [%]: 43.1
- MOLECULE: "[2H]c1nc(C)nc([2H])c1-c1cc(NC[C@@H](C)c2cccc3c(C(=O)NC)ccnc23)ncn1 + COc1cc2c(cc1O)CCNC21CSC2c3c(OC(C)=O)c(C)c4c(c3C(COC1=O)N1C(O)C3Cc5cc(C)c(OC)c(O)c5C(C21)N3C)OCO4"
  viability, T/C [%]: 102
- MOLECULE: "CC(C)n1c(=O)n(C)c2cnc3cc(F)c(-c4ccc(OCCCN5CCCCC5)nc4)cc3c21 + COc1cc2c(cc1O)CCNC21CSC2c3c(OC(C)=O)c(C)c4c(c3C(COC1=O)N1C(O)C3Cc5cc(C)c(OC)c(O)c5C(C21)N3C)OCO4"
  viability, T/C [%]: 98.8
- MOLECULE: "COc1ccc([C@@H](O)c2cc(-c3ncnc4cc(N5CCOCC5)ccc34)c(F)cc2Cl)nn1 + COc1cc2c(cc1O)CCNC21CSC2c3c(OC(C)=O)c(C)c4c(c3C(COC1=O)N1C(O)C3Cc5cc(C)c(OC)c(O)c5C(C21)N3C)OCO4"
  viability, T/C [%]: 86.8
- MOLECULE: "COc1cc(C)[nH]c(=O)c1CN1CCc2c(Cl)cc(C(OC)C3COC3)c(Cl)c2C1=O (stereo unspecified) + COc1cc2c(cc1O)CCNC21CSC2c3c(OC(C)=O)c(C)c4c(c3C(COC1=O)N1C(O)C3Cc5cc(C)c(OC)c(O)c5C(C21)N3C)OCO4"
  viability, T/C [%]: 100

Input: Need viability, T/C of Cc1cc(C)c(CNC(=O)c2cc(-c3ccc(CN4CCOCC4)cc3)cc3c2cnn3C2CCCC2)c(=O)[nH]1 + COc1cc2c(cc1O)CCNC21CSC2c3c(OC(C)=O)c(C)c4c(c3C(COC1=O)N1C(O)C3Cc5cc(C)c(OC)c(O)c5C(C21)N3C)OCO4 , thanks.
Output: 103

* * *

Test system: 556581-035-R-J1 tumor spheroid viability, % test/control
Assay: Anticancer human tumor 556581-035-R-J1 cell line growth inhibition;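 further: spheroids exposed to compounds for 7 days before viability read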
Conditions: second compound 30 pM; first compound 0.0316 µM; active compounds read low; spheroids with HUVEC and MSC
MEASUREMENT_TYPE: viability, T/C (%)
# number only, unit % dropped from output

Some solved entries appear below for comparison.
- COMPOUND: "COc1ccc([C@@H](O)c2cc(-c3ncnc4cc(N5CCOCC5)ccc34)c(F)cc2Cl)nn1 + COc1cc2c(cc1O)CCNC21CSC2c3c(OC(C)=O)c(C)c4c(c3C(COC1=O)N1C(O)C3Cc5cc(C)c(OC)c(O)c5C(C21)N3C)OCO4"
  MEASURED_VALUE: 97.4
- COMPOUND: "[2H]c1nc(C)nc([2H])c1-c1cc(NC[C@@H](C)c2cccc3c(C(=O)NC)ccnc23)ncn1 + COc1cc2c(cc1O)CCNC21CSC2c3c(OC(C)=O)c(C)c4c(c3C(COC1=O)N1C(O)C3Cc5cc(C)c(OC)c(O)c5C(C21)N3C)OCO4"
  MEASURED_VALUE: 105
- COMPOUND: "Cc1cc(C)c(CNC(=O)c2cc(-c3ccc(CN4CCOCC4)cc3)cc3c2cnn3C2CCCC2)c(=O)[nH]1 + COc1cc2c(cc1O)CCNC21CSC2c3c(OC(C)=O)c(C)c4c(c3C(COC1=O)N1C(O)C3Cc5cc(C)c(OC)c(O)c5C(C21)N3C)OCO4"
  MEASURED_VALUE: 100

Now turn to the next compound.
Input: Need viability, T/C of CC(C)n1c(=O)n(C)c2cnc3cc(F)c(-c4ccc(OCCCN5CCCCC5)nc4)cc3c21 + COc1cc2c(cc1O)CCNC21CSC2c3c(OC(C)=O)c(C)c4c(c3C(COC1=O)N1C(O)C3Cc5cc(C)c(OC)c(O)c5C(C21)N3C)OCO4 , thanks.
Output: 86.3

* * *

System: 556581-035-R-J1 tumor spheroid viability, % test/control
Assay: Anticancer human tumor 556581-035-R-J1 cell line growth inhibition;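 further: spheroids exposed to compounds for 7 days before viability read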
Settings: second compound 30 pM; first compound 0.1 µM; active compounds read low; spheroids with HUVEC and MSC
Quick reference: viability, T/C of the listed items.
# number only, unit % dropped from output

- COMPOUND: "CC1COCCN1c1cc(-c2ccnn2C)c2ccnc(-c3ccn[nH]3)c2n1 (stereo unspecified) + COc1cc2c(cc1O)CCNC21CSC2c3c(OC(C)=O)c(C)c4c(c3C(COC1=O)N1C(O)C3Cc5cc(C)c(OC)c(O)c5C(C21)N3C)OCO4"
  MEASUREMENT_TYPE: "viability, T/C"
  QUANTITY_UNIT: "%"
  MEASURED_VALUE: 74.6
- COMPOUND: "CC(C)n1c(=O)n(C)c2cnc3cc(F)c(-c4ccc(OCCCN5CCCCC5)nc4)cc3c21 + COc1cc2c(cc1O)CCNC21CSC2c3c(OC(C)=O)c(C)c4c(c3C(COC1=O)N1C(O)C3Cc5cc(C)c(OC)c(O)c5C(C21)N3C)OCO4"
  MEASUREMENT_TYPE: "viability, T/C"
  QUANTITY_UNIT: "%"
  MEASURED_VALUE: 97.8
- COMPOUND: "COc1cc(C)[nH]c(=O)c1CN1CCc2c(Cl)cc(C(OC)C3COC3)c(Cl)c2C1=O (stereo unspecified) + COc1cc2c(cc1O)CCNC21CSC2c3c(OC(C)=O)c(C)c4c(c3C(COC1=O)N1C(O)C3Cc5cc(C)c(OC)c(O)c5C(C21)N3C)OCO4"
  MEASUREMENT_TYPE: "viability, T/C"
  QUANTITY_UNIT: "%"
  MEASURED_VALUE: 108

Input: Need viability, T/C of [2H]c1nc(C)nc([2H])c1-c1cc(NC[C@@H](C)c2cccc3c(C(=O)NC)ccnc23)ncn1 + COc1cc2c(cc1O)CCNC21CSC2c3c(OC(C)=O)c(C)c4c(c3C(COC1=O)N1C(O)C3Cc5cc(C)c(OC)c(O)c5C(C21)N3C)OCO4 , thanks.
Output: 119

Input: And then COc1ccc([C@@H](O)c2cc(-c3ncnc4cc(N5CCOCC5)ccc34)c(F)cc2Cl)nn1 + COc1cc2c(cc1O)CCNC21CSC2c3c(OC(C)=O)c(C)c4c(c3C(COC1=O)N1C(O)C3Cc5cc(C)c(OC)c(O)c5C(C21)N3C)OCO4 , what is it?
Output: 102

Input: And then Cc1cc(C)c(CNC(=O)c2cc(-c3ccc(CN4CCOCC4)cc3)cc3c2cnn3C2CCCC2)c(=O)[nH]1 + COc1cc2c(cc1O)CCNC21CSC2c3c(OC(C)=O)c(C)c4c(c3C(COC1=O)N1C(O)C3Cc5cc(C)c(OC)c(O)c5C(C21)N3C)OCO4 , what is it?
Output: 108

* * *

Test system: 556581-035-R-J1 tumor spheroid viability, % test/control
Assay: Anticancer human tumor 556581-035-R-J1 cell line growth inhibition;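 further: spheroids exposed to compounds for 7 days before viability read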
Conditions: second compound 3.16 µM; first compound 0.949 µM; active compounds read low; spheroids with HUVEC and MSC
Quick reference: viability, T/C of the listed items.
# number only, unit % dropped from output

Some solved entries appear below for comparison.
- COMPOUND: "Cc1sc2c(c1C)C(c1ccc(Cl)cc1)=NC(CC(=O)Nc1ccc(O)cc1)c1nnc(C)n1-2 (centres undefined) + Cn1nnc2c(C(N)=O)ncn2c1=O"
  viability, T/C, %: 65.5
- COMPOUND: "CNCc1ccc(-c2cc(-c3nc(-c4ccc(S(=O)(=O)C(C)C)cc4)cnc3N)on2)cc1 + Cn1nnc2c(C(N)=O)ncn2c1=O"
  viability, T/C, %: 72.6
- COMPOUND: "O=C(c1cc(Cc2n[nH]c(=O)c3ccccc23)ccc1F)N1CCN(C(=O)C2CC2)CC1 + Cn1nnc2c(C(N)=O)ncn2c1=O"
  viability, T/C, %: 95.4

Now turn to the next compound.
Input: Need viability, T/C of Cn1ncnc1[C@H]1c2n[nH]c(=O)c3cc(F)cc(c23)N[C@@H]1c1ccc(F)cc1 + Cn1nnc2c(C(N)=O)ncn2c1=O , thanks.
Output: 67.8
